Hello, the source for this data is patent EP0514216A1, in case you need it.

Reduction in diastolic blood pressure after 7h. p.o. listing for selected molecules.
Tested on: renal-ligated hypertensive rats
Experiment: anti-hypertensive activity in vivo using renal-ligated hypertensive rats
Parameters: unit not given here
Conditions: 0.5mg/kg orally (p.o.)
measured quantity: Reduction in diastolic blood pressure after 7h. p.o.

{"columns": ["chem smiles", "endpoint value"],
 "data": [
  ["CCc1nc(Cl)c(C(=O)NC)n1Cc1ccc2oc(-c3ccccc3NS(=O)(=O)C(F)(F)F)c(Br)c2c1", -31],
  ["CCCc1nc(Cl)c(C(=O)NC)n1Cc1ccc2oc(-c3ccccc3NS(=O)(=O)C(F)(F)F)c(Br)c2c1", -60],
  ["CCc1nc(C)c(C(=O)NC)n1Cc1ccc2oc(-c3ccccc3NS(=O)(=O)C(F)(F)F)c(Br)c2c1", -54],
  ["CCc1nc(Cl)c(C(N)=O)n1Cc1ccc2oc(-c3ccccc3NS(=O)(=O)C(F)(F)F)c(Br)c2c1", -55]
]}
